biological target: p38 (Homo sapiens); construct: made in house; test: Protein Kinase Assay (33P incorporation from γ-[33P]ATP into GST-ATF-2 substrate); type: biochemical; settings: compound at 10 μM
Sequence (Q16539 whole entry): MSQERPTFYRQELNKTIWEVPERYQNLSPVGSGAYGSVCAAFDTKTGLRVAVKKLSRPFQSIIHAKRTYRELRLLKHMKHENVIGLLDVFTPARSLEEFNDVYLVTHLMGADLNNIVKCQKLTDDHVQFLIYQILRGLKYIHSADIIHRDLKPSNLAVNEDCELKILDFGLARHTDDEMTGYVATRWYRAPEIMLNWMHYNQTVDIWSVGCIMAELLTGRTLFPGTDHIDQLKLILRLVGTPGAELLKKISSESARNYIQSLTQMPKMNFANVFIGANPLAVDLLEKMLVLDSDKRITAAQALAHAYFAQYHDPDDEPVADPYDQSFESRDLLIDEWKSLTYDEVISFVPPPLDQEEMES
Measured inhibition at 10 µM by item
readout_name: inhibition at 10 µM

> print(dat)
                                   molecule      result
1  CC(C)(C)c1cc(NC(=O)Nc2cccc3ccccc23)c(C(=O)N2CCS(=O)(=O)CC2)s1 [Example 11]  76 to 100%
2  CC(C)(C)c1cc(CN2CCSCC2)c(NC(=O)Nc2cccc3ccccc23)s1 [Example 20]    0 to 25%
3  CC(C)(C)c1cc(C(=O)N2CCS(=O)(=O)CC2)c(NC(=O)Nc2ccc(Cl)cc2)s1 [Example 1]  76 to 100%
4  CC(C)(C)c1cc(NC(=O)Nc2cccc3ccccc23)n(CC(=O)N2CCS(=O)(=O)CC2)n1 [Example 9]   51 to 75%
5  CC(C)(C)c1cc(NC(=O)Nc2cccc3ccccc23)c(CN2CCS(=O)(=O)CC2)s1 [Example 14]    0 to 25%
